These measurements were taken from ChEMBL document CHEMBL3351690.

- procedure_details: Stability in mouse liver microsomes at 1 uM pre-incubated for 5 mins in presence of NADPH and measured after 45 mins by LC/MS method
- Assay type: ADME
- assay_setup: read-out: Stability
property_label: remaining at 0.75 h, 1 µM

INSERT INTO assay_data (chemical_string, reported_value) VALUES
  ('Cc1nnc(-c2ccc(-c3nc4cccnc4n3C3CCCC3)cc2)o1', '75%'),
  ('COC(=O)c1ccc(-c2nc3cccnc3n2C2CCCC2)cc1', '52%'),
  ('O=C(NC1CC1)c1ccc(-c2nc3cccnc3n2C2CCCC2)cc1', '42%'),
  ('O=C(O)c1ccc(-c2nc3cccnc3n2C2CCCC2)cc1', '80%');

---

- procedure_details: Stability in human liver microsomes at 1 uM pre-incubated for 5 mins in presence of NADPH and measured after 45 mins by LC/MS method
- Format: ADME
- assay_setup: read-out: Stability
// values below are reported remaining at 0.75 h, 1 µM
property_label: remaining at 0.75 h, 1 µM (%)

INSERT INTO results (chemical_string, reported_value) VALUES
  ('O=C(O)c1ccc(-c2nc3cccnc3n2C2CCCC2)cc1', 80),
  ('Cc1nnc(-c2ccc(-c3nc4cccnc4n3C3CCCC3)cc2)o1', 75),
  ('O=C(NC1CC1)c1ccc(-c2nc3cccnc3n2C2CCCC2)cc1', 42),
  ('COC(=O)c1ccc(-c2nc3cccnc3n2C2CCCC2)cc1', 52);
